- conditionSummary: buffer; pH 7.4; 200.0 µM
reportedMetric: solubility kinetic (µg/mL)

Cc1sc2nc[nH]c(=O)c2c1-c1ccc(Cl)cc1 ... 1.8
Cc1ccc(OCC2Cn3c(nc4c3c(=O)[nH]c(=O)n4C)O2)cc1C (configuration not stated) ... 3.4
O=C(COC(=O)c1ccccc1Cl)NC1CCCCCC1 ... 29.5
Cn1c(CCNC(=O)C2CCCCC2)nc2cc([N+](=O)[O-])ccc21 ... 44
COc1cc(C)ccc1OCC(=O)NC1CCCCCC1 ... 40.5

###

- conditionSummary: buffer; pH 7.4; 200.0 µM
reportedMetric: solubility kinetic

CC1CCCC(NC(=O)CCNC(=O)c2ccc([N+](=O)[O-])cc2)C1C (stereo unspecified) ... > 52.1 µg/mL
O=C(Cc1ccccc1[N+](=O)[O-])Nc1nccs1 ... 7.3 µg/mL
CN(C)c1ccc(Nc2nc(N)c3ccccc3n2)cc1.Cl ... > 47.4 µg/mL
C=CCOCC(O)Cn1c(N2CCCC2)nc2c1c(=O)[nH]c(=O)n2C (stereo unspecified) ... > 52.4 µg/mL
COP(=O)(NS(=O)(=O)c1ccccc1)OC ... 33.9 µg/mL
Cc1nc(C)n(C)c(=O)c1-c1ccccc1 ... > 32.1 µg/mL
